assay_method_text: LNP Zeta potential measured using a Zetasizer (Malvern)
Type: physicochemical
study_conditions: Table 6; LNP 60:0:38.5:1.5 mol %; hEPO mRNA; N:P 6
observable: Zeta potential (mV)

**Q:** Fill in: Zeta potential of CCCCCCCCC(CCCCCC)C(=O)OCCN(CCOC(=O)C(CCCCCC)CCCCCCCC)C(=O)CCC(C)N (stereo not drawn) [Compound 805] is ___
**A:** 3

(1) CCCCCCCCC(CCCCCC)C(=O)OCCN(CCOC(=O)C(CCCCCC)CCCCCCCC)C(=O)CC(C)N (stereo not drawn) [Compound 802]
(2) CCCCCCCCC(CCCCCC)C(=O)OCCN(CCOC(=O)C(CCCCCC)CCCCCCCC)C(=O)CCN(C)C (stereo not drawn) [Compound 808]
(3) CCCCCCCCC(CCCCCC)C(=O)OCCN(CCOC(=O)C(CCCCCC)CCCCCCCC)C(=O)CCN (stereo not drawn) [Compound 801]
(4) CCCCCCCCC(CCCCCC)C(=O)OCCN(CCOC(=O)C(CCCCCC)CCCCCCCC)C(=O)CCCN(C)C (stereo not drawn) [Compound 807]
(5) CCCCCCCCC(CCCCCC)C(=O)OCCN(CCOC(=O)C(CCCCCC)CCCCCCCC)C(=O)CCCN (stereo not drawn) [Compound 804]
**Q:** Put the items in order so that reported Zeta potential rises from first to last. I'd appreciate it if you listed the labels in the requested order.
**A:** 4, 2, 1, 3, 5
(4: −0.6 mV, 2: −0.4 mV, 1: 0.1 mV, 3: 1.6 mV, 5: 2.8 mV)

----------
assay_method_text: Encapsulation efficiency (EE %) by fluorescence based Ribogreen assay
Format: physicochemical
study_conditions: Table 11; LNP with hEPO mRNA, Lipid:DSPC:Cholesterol:DMG-PEG2k 50:10:38.5:1.5 mol % (ALC-0315: 46.3:9.4:42.7:1.6), N:P ratio 6; HEPES/sodium chloride/sucrose buffer, stored at −80C
observable: Encapsulation Efficiency % (%)

**Q:** Any idea what its Encapsulation Efficiency % is? The compound is CCCCCCCCC(CCCCCC)C(=O)OCCN(CCOC(=O)C(CCCCCC)CCCCCCCC)C(=O)C(C)CCN(C)CCO.Cl (stereo not shown) [Compound 987p]
**A:** 99.2

**Q:** Encapsulation Efficiency % lookup needed for CCCCCCCC(CCCCCCC)C(=O)OCCN(CCOC(=O)C(CCCCCCC)CCCCCCC)C(=O)C(C)CCN(C)C.Cl (stereo not shown) [Compound 987b] , thanks.
**A:** 93.6

**Q:** Give the measured Encapsulation Efficiency % of CCCCCCCCC(CCCCCC)C(=O)OCCN(CCOC(=O)C(CCCCCC)CCCCCCCC)C(=O)C(C)CCN1CCCC1.Cl (stereo not shown) [Compound 987l] .
**A:** 95.9

**Q:** Give its Encapsulation Efficiency % value. Item: CCCCCCCCC(CCCCCC)C(=O)OCCN(CCOC(=O)C(CCCCCC)CCCCCCCC)C(=O)C(C)CCNC.Cl (stereo not shown) [Compound 987d]
**A:** 99.2

----------
assay_method_text: Encapsulation efficiency (EE %) by fluorescence based Ribogreen assay
Type: physicochemical
study_conditions: Table 5; LNP 50:10:38.5:1.5 mol %; hEPO mRNA; N:P 6
observable: Encapsulation Efficiency % (%)

**Q:** Recorded Encapsulation Efficiency % for CCCCCCCCCCCCC(CC)C(=O)OCCN(CCOC(=O)C(CC)CCCCCCCCCCCC)C(=O)CN (stereo not shown) [Compound 606] , please?
**A:** 99.9

**Q:** Entry under review: CCCCCCCC(CCCCCCC)C(=O)OCCN(CCOC(=O)C(CCCCCCC)CCCCCCC)C(=O)C(C)N (stereo not shown) [Compound 611] . Reported Encapsulation Efficiency %?
**A:** 99.3

**Q:** // query Encapsulation Efficiency % value for entry CCCCCCCCCCCCC(CC)C(=O)OCCN(CCOC(=O)C(CC)CCCCCCCCCCCC)C(=O)C(C)N (stereo not shown) [Compound 613]
**A:** 99.8

**Q:** Could you tell me which Encapsulation Efficiency % is on file for CCCCCCCCCCCCC(CC)C(=O)OCCN(CCOC(=O)C(CC)CCCCCCCCCCCC)C(=O)C(N)Cc1ccccc1 (stereo not shown) [Compound 620] ?
**A:** 99
